molecular target: Recombinant human his-tagged IGF R extracellular domain protein (human) (UniProt P08069); assay: SPR, Ab captured via anti-huIgG Fc, pH 7.4
Quick list: kon per entry.
Expressed in M⁻¹ s⁻¹, but write only the number.

VRDN-02036 (antibody, V domains shown) VH: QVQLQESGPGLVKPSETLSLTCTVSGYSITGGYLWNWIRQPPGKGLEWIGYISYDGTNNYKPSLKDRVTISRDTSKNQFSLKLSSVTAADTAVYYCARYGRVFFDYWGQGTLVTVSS VL: DIVMTQSPLSLPVTPGEPASISCRSSQSIVHHNGNTYLQWYLQKPGQSPQLLIYKVSNRLYGVPDRFSGSGSGTDFTLKISRVEAEDVGVYYCFQGSHVPWTFGQGTKVEIK; 99500
VRDN-02021 (antibody, V domains shown) VH: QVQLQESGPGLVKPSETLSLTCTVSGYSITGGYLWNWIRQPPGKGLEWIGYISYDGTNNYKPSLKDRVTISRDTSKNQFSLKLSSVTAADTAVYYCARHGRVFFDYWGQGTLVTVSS VL: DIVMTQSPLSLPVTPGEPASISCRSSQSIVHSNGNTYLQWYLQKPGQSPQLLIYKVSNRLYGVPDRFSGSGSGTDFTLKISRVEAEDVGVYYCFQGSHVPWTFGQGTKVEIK; 67300
VRDN-02047 (antibody, V domains shown) VH: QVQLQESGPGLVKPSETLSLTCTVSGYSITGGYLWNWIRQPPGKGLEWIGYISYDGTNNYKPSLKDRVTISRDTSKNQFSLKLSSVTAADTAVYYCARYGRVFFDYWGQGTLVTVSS VL: DIVMTQSPLSLPVTPGEPASISCRSSQSIVHSNGNTYLQWYLQKPGQSPQLLIYKVSHRLYGVPDRFSGSGSGTDFTLKISRVEAEDVGVYYCFQGSHVPWTFGQGTKVEIK; 85900
VRDN-02040 (antibody, V domains shown) VH: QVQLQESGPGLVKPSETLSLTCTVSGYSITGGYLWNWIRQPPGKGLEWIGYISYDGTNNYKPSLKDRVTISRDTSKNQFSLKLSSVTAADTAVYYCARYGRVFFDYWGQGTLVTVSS VL: DIVMTQSPLSLPVTPGEPASISCRSSQSIVHSNGNHYLQWYLQKPGQSPQLLIYKVSNRLYGVPDRFSGSGSGTDFTLKISRVEAEDVGVYYCFQGSHVPWTFGQGTKVEIK; 85400

// moving on: another record for kon
Consider VRDN-02037 (antibody, V domains shown) VH: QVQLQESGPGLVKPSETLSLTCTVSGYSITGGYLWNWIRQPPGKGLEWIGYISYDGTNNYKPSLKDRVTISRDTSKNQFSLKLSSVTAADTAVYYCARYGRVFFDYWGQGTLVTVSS VL: DIVMTQSPLSLPVTPGEPASISCRSSQSIVHSHGNTYLQWYLQKPGQSPQLLIYKVSNRLYGVPDRFSGSGSGTDFTLKISRVEAEDVGVYYCFQGSHVPWTFGQGTKVEIK . Its measured kon is 76200
